// reported whole-cell filipin (z-score) per item
tested on: A431; assay: whole-cell filipin (free cholesterol) integrated intensity, Z-score; higher = more cholesterol staining; conditions: compound concentration in added solution (µM; 5 µl added to 20 µl cells): 10; 18 h
Counter-ions that a name gives are not always drawn.
Could you respond with only the numeric value?

These solved cases illustrate the format of a correct answer.
1) Cc1cccc(Nc2ccncc2S(=O)(=O)NC(=O)NC(C)C)c1 [Torsemide]    0.00281
2) CC(C)(CO)C(O)C(=O)NCCCO (stereo not drawn)    -0.953
3) CN(C)[C@@H]1C(O)=C(C(N)=O)C(=O)[C@@]2(O)C(O)=C3C(=O)c4c(O)ccc(Cl)c4[C@@H](O)[C@H]3C[C@@H]12 [Demeclocycline hydrochloride]    -0.566
4) Cc1onc(-c2ccccc2Cl)c1C(=O)N[C@@H]1C(=O)N2[C@@H]1SC(C)(C)[C@@H]2C(=O)O [Cloxacillin sodium salt]    -0.641
5) O=C(O)c1cccnc1Nc1cccc(C(F)(F)F)c1    -0.705
6) CC(O)(P(=O)(O)O)P(=O)(O)O [Etidronic acid, disodium salt]    -0.14
7) S=c1[nH]cnc2nc[nH]c12    -0.622
8) CCCCN(CCCC)CCC(O)c1cc2c(Cl)cc(Cl)cc2c2cc(C(F)(F)F)ccc12 (stereo not drawn) [Halofantrine hydrochloride]    1.07

Query: whole-cell filipin (z-score); subject: CCN(CC)CCc1nc(-c2ccccc2)no1 [Oxalamine citrate salt]
-0.277

And Cc1ncc(C[n+]2csc(CCO)c2C)c(N)n1 [Thiamine hydrochloride] ?
0.0289

And Nc1nnc(-c2cccc(Cl)c2Cl)c(N)n1 ?
0.954

And COC(=O)[C@@H]1[C@H]2C[C@H]3c4[nH]c5ccccc5c4CCN3C[C@@H]2CC[C@@H]1O [Yohimbine hydrochloride] ?
-0.685
